Data credit: ChEMBL document CHEMBL5500367

For each entry below, report its IC50 value.
ASSAY SYSTEM: Programmed cell death protein 1/Programmed cell death 1 ligand 1 (Homo sapiens)
Sequence (Q15116 whole entry): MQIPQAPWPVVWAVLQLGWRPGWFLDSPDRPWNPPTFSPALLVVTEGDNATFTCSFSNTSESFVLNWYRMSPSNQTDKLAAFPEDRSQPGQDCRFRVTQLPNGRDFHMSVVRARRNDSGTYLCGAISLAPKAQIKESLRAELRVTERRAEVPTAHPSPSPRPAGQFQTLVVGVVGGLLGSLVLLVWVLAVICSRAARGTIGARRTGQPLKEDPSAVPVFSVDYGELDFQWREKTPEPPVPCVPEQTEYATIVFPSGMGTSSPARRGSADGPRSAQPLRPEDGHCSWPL
Sequence (Q9NZQ7 whole entry): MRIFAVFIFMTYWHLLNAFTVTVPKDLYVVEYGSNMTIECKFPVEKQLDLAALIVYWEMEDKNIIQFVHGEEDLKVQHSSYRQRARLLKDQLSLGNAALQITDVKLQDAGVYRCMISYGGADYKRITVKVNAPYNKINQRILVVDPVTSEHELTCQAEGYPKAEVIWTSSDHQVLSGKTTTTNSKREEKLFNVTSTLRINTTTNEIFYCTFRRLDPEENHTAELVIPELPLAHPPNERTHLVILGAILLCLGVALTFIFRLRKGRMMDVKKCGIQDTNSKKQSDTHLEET
ASSAY METHOD TEXT: Inhibition of PD-1/PD-L1 (unknown origin) interaction incubated for 15 mins by HTRF assay
Numbers only, in nM.

COc1cc(OC(=O)c2cccc(-c3ccccc3)c2C)ccc1CNC[C@@H](O)CO
302
Cc1c(C(=O)Oc2ccc(CN[C@@H](CO)C(=O)O)c(OCc3cccc(C#N)c3)c2C)cccc1-c1ccccc1
231
Cc1cc(OC(=O)c2cccc(-c3ccccc3)c2C)cc(OCc2cccc(C#N)c2)c1CNCCO
271

Now examine the next entry.
Kindly state the measured IC50 obtained for COc1cc(OC(=O)c2cccc(-c3ccccc3)c2C)ccc1CNC(CO)CO with Programmed cell death protein 1/Programmed cell death 1 ligand 1 (Homo sapiens).
27.1
